IC50 values, listed per item
test system: Trypanosoma brucei brucei trypomastigotes, suramin-sensitive strain (Squib 427); test: T. b. brucei growth/viability assay (resazurin); assay type: cell-based; settings: 3 days

{"columns": ["COMPOUND", "UNIT_SPEC", "VALUE_COMPARATOR", "IC50"],
 "data": [
  ["O=C(/C=C/c1ccccc1)/C=C/c1ccc(C(F)(F)F)cc1", "nM", "=", 2200],
  ["C=CCOc1ccc(/C=C/C(=O)/C=C/c2ccc(OCC=C)c(OC)c2)cc1OC", "nM", "=", 6800],
  ["O=C(/C=C/c1ccccc1)/C=C/c1ccncc1", "nM", "≤", 200],
  ["Cc1ccc(/C=C/C(=O)/C=C/c2ccccc2)cc1", "nM", "=", 500],
  ["CN(C)c1ccc(/C=C/C(=O)/C=C/c2nccs2)cc1", "nM", "=", 400],
  ["COc1ccc(C2CC(=O)CC(c3ccc(OC)cc3)S2)cc1 (stereo not drawn)", "nM", "≥", 64000],
  ["O=C1CC(c2ccccn2)S(=O)(=O)C(c2ccccn2)C1 (stereo not drawn) [4′w]", "nM", "=", 100],
  ["Cc1ccccc1/C=C/C(=O)/C=C/c1ccccc1C", "nM", ">", 64000],
  ["O=C1CC(c2ccccn2)SC(c2ccccn2)C1 (stereo not drawn)", "nM", "=", 29100],
  ["COc1ccc(C2CC(=O)CC(c3ccc(OC)cc3)[S+]2[O-])cc1 (stereo not drawn) [3″d]", "nM", "=", 2400],
  ["COc1ccc(C2CC(=O)CC(c3ccc(OC)cc3)S2(=O)=O)cc1 (racemic) [4d]", "nM", "=", 43300],
  ["O=C1CC(c2ccc(C(F)(F)F)cc2)SC(c2ccc(C(F)(F)F)cc2)C1 (racemic)", "nM", "=", 500],
  ["O=C(/C=C/c1ccccc1)/C=C/c1ncccn1", "nM", "≤", 200],
  ["COc1cc(Br)c(OC)c([C@@H]2CC(=O)C[C@H](c3cc(OC)cc(Br)c3OC)S2)c1", "nM", "=", 32200],
  ["CC(=O)Nc1ccc(/C=C/C(=O)/C=C/c2ccc(NC(C)=O)cc2)cc1", "nM", "=", 500],
  ["N#Cc1ccc(C2CC(=O)CC(c3ccc(C#N)cc3)S2)cc1 (racemic)", "nM", "=", 1200],
  ["COc1ccc(/C=C/C(=O)/C=C/c2ccc(OC)cc2)cc1", "nM", "=", 1240],
  ["O=C1CC(c2c(Cl)cccc2Cl)SC(c2c(Cl)cccc2Cl)C1 (racemic)", "nM", ">", 64000],
  ["Cc1ccccc1C1CC(=O)CC(c2ccccc2C)S1 (racemic)", "nM", ">", 64000],
  ["COc1cc([C@@H]2CC(=O)C[C@H](c3cc(OC)c(C)cc3OC)S2)c(OC)cc1C", "nM", "=", 32500],
  ["CC(=O)Nc1ccc(C2CC(=O)CC(c3ccc(NC(C)=O)cc3)S2)cc1 (racemic)", "nM", ">", 64000]
]}
